# credit: patent US20150299188A1

test system: FLAP (5-lipoxygenase activating protein); test: In vitro binding test: displacement of [3H]-7-chloro-3-(5-((3-fluoropyridin-2-yl)methoxy)-2-methylphenyl)-3,4-dihydroquinazolin-2(1H)-one from Sf9 microsome fractions; design: species or system human and mouse; conditions: Sf9 microsome fractions expressing FLAP; 100% = radioligand binding with 10 μM sodium 3-(3-(tert-butylsulfanyl)-1-(4-chlorobenzyl)-5-isopropyl-1H-indol-2-yl)-2,2-dimethylpropanoate, 0% = DMSO; test compound concentration not given
Below: a set of entries, each annotated with reported inhibitory rate (%).
Lab book: enter the figure in %, no units written.

**Q:** Which inhibitory rate (%) reading was recorded for the compound COC(=O)c1ccc(OCc2ncccc2F)cc1N1Cc2ccccc2NC1=O ?
**A:** 106

**Q:** Which inhibitory rate (%) reading was recorded for the compound COc1ncc(Cl)c2c1NC(=O)N(c1cc3c(cc1Cl)CCC(c1ncccc1F)O3)C2 (centres unmarked) ?
**A:** 107

**Q:** Which inhibitory rate (%) reading was recorded for the compound O=C1Nc2ccccc2CN1c1cc(OCc2ncccc2F)ccc1CNC1CC1 ?
**A:** 86

====

system: FLAP (5-lipoxygenase activating protein); experiment: In vitro binding test: displacement of [3H]-7-chloro-3-(5-((3-fluoropyridin-2-yl)methoxy)-2-methylphenyl)-3,4-dihydroquinazolin-2(1H)-one from Sf9 microsome fractions; set-up: species or system human and mouse; conditions: Sf9 microsome fractions expressing FLAP; 100% = radioligand binding with 10 μM sodium 3-(3-(tert-butylsulfanyl)-1-(4-chlorobenzyl)-5-isopropyl-1H-indol-2-yl)-2,2-dimethylpropanoate, 0% = DMSO; test compound concentration not given
readout-type: inhibitory rate (%)
Lab book: enter the figure in %, no units written.

- compound: "COc1ncnc2c1CN(c1cc(OCc3ncccc3F)ccc1C)C(=O)N2"
  inhibitory rate (%): 52

**Q:** Which inhibitory rate (%) reading was recorded for the compound O=C1Nc2ccccc2CN1c1cc(OCc2ncccc2F)ccc1F ?
**A:** 105

**Q:** Which inhibitory rate (%) reading was recorded for the compound Cc1ccc(OCc2c(F)cc(Cl)cc2F)cc1N1Cc2ccccc2NC1=O ?
**A:** 54

**Q:** Which inhibitory rate (%) reading was recorded for the compound Cc1cnn(-c2cc3c(c(C4CC4)n2)CN(c2cc4c(cc2C)CCC(c2ncccc2F)O4)C(=O)N3)c1 (centres unmarked) ?
**A:** 100

**Q:** Which inhibitory rate (%) reading was recorded for the compound Cc1ccc(OCc2c(F)cccc2F)cc1N1Cc2cccc(C(C)(C)O)c2NC1=O ?
**A:** 87

====

Below: a set of entries, each annotated with reported inhibitory rate (%).
System: FLAP (5-lipoxygenase activating protein)
Assay: In vitro binding test: displacement of [3H]-7-chloro-3-(5-((3-fluoropyridin-2-yl)methoxy)-2-methylphenyl)-3,4-dihydroquinazolin-2(1H)-one from Sf9 microsome fractions
Design: species or system human and mouse
Conditions: Sf9 microsome fractions expressing FLAP; 100% = radioligand binding with 10 μM sodium 3-(3-(tert-butylsulfanyl)-1-(4-chlorobenzyl)-5-isopropyl-1H-indol-2-yl)-2,2-dimethylpropanoate, 0% = DMSO; test compound concentration not given
Procedure: As an assay buffer, 100 mM Tris-HCl, pH 7.5, 140 mM NaCl, 2 mM EDTA, 0.5 mM dithiothreitol, 5% glycerol, 0.05% Tween20 was used. Sf9 microsome fractions expressing human and mouse FLAPs were dispensed by 50 μL to a 96-well plate at 2 μg/mL. […] The GF/B Unifilter plate was dried at 37° C., Microscint 0 was added and measured by TopCount NXT (PerkinElmer). […]

- molecule: "Cc1ccc(OCc2ncccc2F)cc1-n1c(=O)[nH]c2cccc(C(F)(F)F)c2c1=O"
  inhibitory rate (%): "97%"
- molecule: "Cc1ccc(OCc2ncccc2F)cc1N1Cc2c(ccnc2C2CC2)NC1=O"
  inhibitory rate (%): "101%"
- molecule: "O=C1Nc2c(N3CCCC3)ncc(Cl)c2CN1c1cc2c(cc1Cl)CCC(c1ncccc1F)O2 (centres unmarked)"
  inhibitory rate (%): "104%"
- molecule: "CC(C)(O)c1ccc2c(c1)NC(=O)N(c1cc(OCc3c(F)cccc3F)ccc1CCc1ccccc1)C2"
  inhibitory rate (%): "106%"
- molecule: "COC(=O)c1ccccc1CN1C(=O)N(c2cc(OCc3ncccc3F)ccc2C)Cc2c(Cl)cccc21"
  inhibitory rate (%): "102%"

**Q:** Which inhibitory rate (%) reading was recorded for the molecule Cc1ccc(OCc2ncccc2F)cc1-n1c(=O)[nH]c2cc(C(F)(F)F)ccc2c1=O ?
**A:** 104%

**Q:** Which inhibitory rate (%) reading was recorded for the molecule Cc1ccc(OCc2ncccc2F)cc1N1Cc2cc(Cl)ccc2NC1=O ?
**A:** 100%

**Q:** Which inhibitory rate (%) reading was recorded for the molecule Cc1ccc(OCc2ncccc2F)cc1N1Cc2ccc(C(F)(F)F)cc2NC1=O ?
**A:** 101%

====

tested on: FLAP (5-lipoxygenase activating protein); experiment: In vitro binding test: displacement of [3H]-7-chloro-3-(5-((3-fluoropyridin-2-yl)methoxy)-2-methylphenyl)-3,4-dihydroquinazolin-2(1H)-one from Sf9 microsome fractions; set-up: species or system human and mouse; details: Sf9 microsome fractions expressing FLAP; 100% = radioligand binding with 10 μM sodium 3-(3-(tert-butylsulfanyl)-1-(4-chlorobenzyl)-5-isopropyl-1H-indol-2-yl)-2,2-dimethylpropanoate, 0% = DMSO; test compound concentration not given
Below: a set of entries, each annotated with reported inhibitory rate (%).
Lab book: enter the figure in %, no units written.

- compound: "Cc1ccc(OCc2ncccc2F)cc1-n1c(=O)[nH]c2cc(NC(=O)C3CC3)ccc2c1=O [Example 350]"
  endpoint-unit: "%"
  inhibitory rate (%): 101
- compound: "O=c1[nH]c2ccccc2c(=O)n1-c1cccc(OCc2ncccc2F)c1 [Example 346]"
  endpoint-unit: "%"
  inhibitory rate (%): 96
- compound: "Cc1ccc(OCc2ncccc2F)cc1N1Cc2ncccc2NC1=O [Example 272]"
  endpoint-unit: "%"
  inhibitory rate (%): 95
- compound: "COc1cccc2[nH]c(=O)n(-c3cc(OCc4ncccc4F)ccc3C)c(=O)c12 [Example 365]"
  endpoint-unit: "%"
  inhibitory rate (%): 94
- compound: "O=C1Nc2cccc(Cl)c2CN1c1cc(OCc2ncccc2F)c(F)cc1Cl [Example 287]"
  endpoint-unit: "%"
  inhibitory rate (%): 95

**Q:** Which inhibitory rate (%) reading was recorded for the compound O=C1Nc2ccnc(Cl)c2CN1c1cc2c(cc1Cl)CC[C@@H](c1ncccc1F)O2 [Example 2] ?
**A:** 102

**Q:** Which inhibitory rate (%) reading was recorded for the compound O=C(NC1COC1)c1cc2c(c(C3CC3)n1)CN(c1cc3c(cc1Cl)CCC(c1ncccc1F)O3)C(=O)N2 (centres unmarked) [Example 98] ?
**A:** 94

**Q:** Which inhibitory rate (%) reading was recorded for the compound O=C1Nc2ccccc2CN1c1cc(OCc2ncccc2F)ccc1Cl [Example 231] ?
**A:** 103

====

tested on: FLAP (5-lipoxygenase activating protein); experiment: In vitro binding test: displacement of [3H]-7-chloro-3-(5-((3-fluoropyridin-2-yl)methoxy)-2-methylphenyl)-3,4-dihydroquinazolin-2(1H)-one from Sf9 microsome fractions; parameters: species or system human and mouse; details: Sf9 microsome fractions expressing FLAP; 100% = radioligand binding with 10 μM sodium 3-(3-(tert-butylsulfanyl)-1-(4-chlorobenzyl)-5-isopropyl-1H-indol-2-yl)-2,2-dimethylpropanoate, 0% = DMSO; test compound concentration not given
Below: a set of entries, each annotated with reported inhibitory rate (%).
Lab book: enter the figure in %, no units written.

- compound: "CC(C)(O)c1nccc2c1CN(c1cc3c(cc1Cl)CCC(c1ncccc1F)O3)C(=O)N2 (stereo not shown)"
  inhibitory rate (%): 106
- compound: "COC(=O)c1ccc2c(c1)NC(=O)N(c1cc(OCc3ccccn3)ccc1C)C2"
  inhibitory rate (%): 104
- compound: "Cc1ccc(OCc2c(F)cccc2F)cc1N1Cc2ccccc2NC1=O"
  inhibitory rate (%): 91

**Q:** Enter reported inhibitory rate (%) observed with FLAP (5-lipoxygenase activating protein) for Cc1cc2c(cc1N1Cc3cc(Cl)cnc3NC1=O)OC(c1ncccc1F)CC2 (stereo not shown)
**A:** 105

====

tested on: FLAP (5-lipoxygenase activating protein); test: In vitro binding test: displacement of [3H]-7-chloro-3-(5-((3-fluoropyridin-2-yl)methoxy)-2-methylphenyl)-3,4-dihydroquinazolin-2(1H)-one from Sf9 microsome fractions; design: species or system human and mouse; conditions: Sf9 microsome fractions expressing FLAP; 100% = radioligand binding with 10 μM sodium 3-(3-(tert-butylsulfanyl)-1-(4-chlorobenzyl)-5-isopropyl-1H-indol-2-yl)-2,2-dimethylpropanoate, 0% = DMSO; test compound concentration not given
readout-type: inhibitory rate (%)
Lab book: enter the figure in %, no units written.

- compound: "O=C1Nc2cc(CO)ccc2CN1c1cc(OCc2c(F)cccc2F)ccc1CC1CCCCC1"
  measurement-target: "FLAP (5-lipoxygenase activating protein)"
  inhibitory rate (%): 97
- compound: "COC(=O)c1ccc2c(c1)NC(=O)N(c1cc(OCc3nc(C)cs3)ccc1C)C2"
  measurement-target: "FLAP (5-lipoxygenase activating protein)"
  inhibitory rate (%): 90
- compound: "COC1CN(C(=O)c2cc3c(c(C4CC4)n2)CN(c2cc4c(cc2Cl)CCC(c2ncccc2F)O4)C(=O)N3)C1 (centres unmarked)"
  measurement-target: "FLAP (5-lipoxygenase activating protein)"
  inhibitory rate (%): 97

**Q:** Which inhibitory rate (%) reading was recorded for the compound Cc1cc2c(cc1N1Cc3c(ccnc3C(F)(F)F)NC1=O)O[C@@H](c1ncccc1F)CC2 ?
**A:** 100

**Q:** Which inhibitory rate (%) reading was recorded for the compound Cc1cc2c(cc1N1Cc3c(cc(Cl)nc3Cl)NC1=O)OC(c1ncccc1F)CC2 (centres unmarked) ?
**A:** 108

**Q:** Which inhibitory rate (%) reading was recorded for the compound O=C1Nc2ccnc(Cl)c2CN1c1cc2c(cc1Cl)CC[C@H](c1ncccc1F)O2 ?
**A:** 97

**Q:** Which inhibitory rate (%) reading was recorded for the compound COc1ncc(C(F)(F)F)c2c1NC(=O)N(c1cc3c(cc1Cl)CCC(c1ncccc1F)O3)C2 (centres unmarked) ?
**A:** 104

**Q:** Which inhibitory rate (%) reading was recorded for the compound O=C1Nc2cc(-c3noc(=S)[nH]3)nc(C3CC3)c2CN1c1cc2c(cc1Cl)CCC(c1ncccc1F)O2 (centres unmarked) ?
**A:** 104

**Q:** Which inhibitory rate (%) reading was recorded for the compound O=c1[nH]c2cn(CC3CC3)nc2c(=O)n1-c1cc(OCc2ncccc2F)ccc1Br ?
**A:** 101
